Numbers sourced from ChEMBL document CHEMBL1132608.

Parameter IC50, tested on Dipeptidyl peptidase 4 (Homo sapiens, UniProt P27487), listed per item.
Sequence (P27487 whole entry): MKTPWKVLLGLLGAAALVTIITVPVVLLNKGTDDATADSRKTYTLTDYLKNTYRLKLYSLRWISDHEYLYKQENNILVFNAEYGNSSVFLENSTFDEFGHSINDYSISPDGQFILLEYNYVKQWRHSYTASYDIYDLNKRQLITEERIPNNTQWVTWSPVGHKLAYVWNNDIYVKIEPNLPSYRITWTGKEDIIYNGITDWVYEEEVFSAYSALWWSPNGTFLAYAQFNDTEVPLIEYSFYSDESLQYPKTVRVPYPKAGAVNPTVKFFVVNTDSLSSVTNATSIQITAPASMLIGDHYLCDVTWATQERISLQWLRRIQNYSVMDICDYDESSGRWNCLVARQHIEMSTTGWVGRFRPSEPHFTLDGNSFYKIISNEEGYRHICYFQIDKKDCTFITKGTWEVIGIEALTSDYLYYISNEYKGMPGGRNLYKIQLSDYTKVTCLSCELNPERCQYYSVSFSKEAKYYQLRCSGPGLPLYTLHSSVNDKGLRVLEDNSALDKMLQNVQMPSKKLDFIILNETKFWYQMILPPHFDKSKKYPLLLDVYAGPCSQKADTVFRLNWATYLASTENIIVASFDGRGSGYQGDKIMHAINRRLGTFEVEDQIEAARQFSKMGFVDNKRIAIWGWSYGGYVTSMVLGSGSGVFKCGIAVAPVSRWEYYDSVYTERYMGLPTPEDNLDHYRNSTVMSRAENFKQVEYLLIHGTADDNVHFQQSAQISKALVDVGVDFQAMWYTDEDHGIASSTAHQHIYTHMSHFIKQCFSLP
Supply the numeric figure in µM, leaving out any unit text.

See these solved cases before continuing.
| molecule | unit | quantitativeReadout |
| --- | --- | --- |
| Cl.O=C(C1CCCN1)N1CCCC1P(=O)(Oc1ccc(NN2CCCC2)cc1)Oc1ccc(NN2CCCC2)cc1 (stereo not given) | µM | 5 |
| O=C(C1CCCN1)N1CCCC1P(=O)(OCC(F)(F)F)OCC(F)(F)F (stereo not given) | µM | 9100 |
| O=C(C1CCCN1)N1CCCC1P(=O)(OCC(Cl)(Cl)Cl)OCC(Cl)(Cl)Cl (stereo not given) | µM | 1800 |
| Cl.NC(=O)Nc1cccc(OP(=O)(OC2=CC=CC(NC(N)=O)C2)C2CCCN2C(=O)C2CCCN2)c1 (stereo not given) | µM | 2.3 |

# ---- query molecule ----
Query for Dipeptidyl peptidase 4 (Homo sapiens, UniProt P27487): what IC50 does the record show for C[C@H](N)C(=O)Nc1ccc(OP(=O)(Oc2ccc(NC(=O)[C@@H](C)N)cc2)C2CCCN2C(=O)C2CCCN2)cc1.Cl (stereo not given in full) ?
0.6

* * *

experimentSummary: Functional stability in plasma was estimated by fitting the inverse of apparent IC50 values verses time with a single-exponential decay
Type: ADME, cell-free
Assign class 1 whenever half-life does not fall below 30 min; assign class 0 whenever it does.

Example entries begin here.
| molecule | classLabel |
| --- | --- |
| Cl.O=C([C@@H]1CCCN1)N1CCCC1P1(=O)Oc2ccccc2-c2ccccc2O1 (stereo partly drawn) | class 0 |
| CCCNC(=O)c1ccc(OP(=O)(Oc2ccc(C(=O)NCCC)cc2)C2CCCN2C(=O)C2CCCN2)cc1.Cl (stereo not drawn) | class 0 |
| Cl.O=C(C1CCCN1)N1CCCC1P(=O)(Oc1ccc(O)cc1)Oc1ccc(O)cc1 (stereo not drawn) | class 1 |
| CCOC(=O)CNC(=O)c1ccc(OP(=O)(Oc2ccc(C(=O)NCC(=O)OCC)cc2)C2CCCN2C(=O)C2CCCN2)cc1.Cl (stereo not drawn) | class 1 |

State whether the measured half-life reaches 30 min, counting equality as reaching it, for Cl.NCC(=O)Nc1ccc(OP(=O)(Oc2ccc(NC(=O)CN)cc2)C2CCCN2C(=O)C2CCCN2)cc1 (stereo not drawn)
class 0

State whether the measured half-life reaches 30 min, counting equality as reaching it, for CC(=O)Nc1cccc(OP(=O)(Oc2cccc(NC(C)=O)c2)C2CCCN2C(=O)C2CCCN2)c1.Cl (stereo not drawn)
class 1

State whether the measured half-life reaches 30 min, counting equality as reaching it, for COc1ccc(OP(=O)(Oc2ccc(OC)cc2)C2CCCN2C(=O)C2CCCN2)cc1.Cl (stereo not drawn)
class 1

State whether the measured half-life reaches 30 min, counting equality as reaching it, for CS(=O)(=O)Nc1ccc(OP(=O)(Oc2ccc(NS(C)(=O)=O)cc2)C2CCCN2C(=O)C2CCCN2)cc1.Cl (stereo not drawn)
class 1
